# Tested on: Leishmania donovani
# Test Protocol: Leishmania intramacrophage assay
# Assay type: functional, organism-based
# Design: scale not given: in the data most compounds retested in dose-response had high values
# Test Settings: 30.3 µM; […]
Out of some 69,000 compounds screened, about 1,000 (1.4%) showed an effect of 50% or more. The full list was thinned out, with strong results kept by preference.
Readout Kind: Percent Effect (%)

                                    compound    readout_kind  value_reported
 0  COCC(=O)N1CCN(S(=O)(=O)c2ccccc2)[C@H]2CS(=O)(=O)C[C@H]21  Percent Effect           50.92
 1  CC(C)N1CCO[C@@H]2CN(C(=O)NCc3ccccc3)CC[C@@H]2C1.O=C(O)C(F)(F)F  Percent Effect           17.12
 2         COc1ccc(OCCN(C)c2cc(C)nc(N)n2)cc1  Percent Effect           6.601
 3  O=C(Nc1ccccc1)C1CN(CC2CCOCC2)CC12CCOCC2.O=C(O)C(F)(F)F (stereo not given)  Percent Effect           6.071
 4           COc1ccccc1OCCN(C)c1cc(C)nc(N)n1  Percent Effect           6.974
 5  COCC(=O)N1CCN(S(=O)(=O)c2cccs2)[C@H]2CS(=O)(=O)C[C@H]21  Percent Effect          -6.326
 6   Cc1c(C(=O)N2CCOCC2)n(C)c2ccc(Cl)cc12.Cl  Percent Effect           19.33
 7  Clc1ccc(N2CCC(C3CCN(Cc4cccnc4)CC3)C2)nc1 (stereo not given)  Percent Effect          -2.762
 8  CN1CCOCC12CCN(c1ccc(C#N)cc1)CC2.O=C(O)C(F)(F)F  Percent Effect           14.66
 9  CC(C)N1CCO[C@@H]2CN(C(=O)Cc3cccs3)CC[C@@H]2C1.O=C(O)C(F)(F)F  Percent Effect           50.53
10  Cc1nc[nH]c1CN(Cc1ccccc1)C1CC(C)(C)NC(C)(C)C1.O=C(O)CC(O)(CC(=O)O)C(=O)O  Percent Effect           45.23
11  Cc1nc(C)n(CC2CCCN2CC(=O)Nc2cccnc2)n1 (stereo not given)  Percent Effect           2.659
12       COc1ccncc1NC(=O)c1[nH]nc(C(C)C)c1Br  Percent Effect           16.78
13  CCC(=O)N1CCN(S(=O)(=O)c2cccc(F)c2)[C@H]2CS(=O)(=O)C[C@H]21  Percent Effect           19.41
14  Cc1nc[nH]c1CN(Cc1ccccc1F)C1CC(C)(C)NC(C)(C)C1.O=C(O)CC(O)(CC(=O)O)C(=O)O  Percent Effect           53.75
15   Cc1c(C(=O)N2CCN(C)CC2)n(C)c2ccc(Cl)cc12  Percent Effect           11.88
16  O=S(=O)(NC1=NCN(CCc2ccccc2)CN1)c1ccc(F)cc1  Percent Effect           1.728
17  CN(C)CCN1C(=O)CC[C@@H]2[C@H]1CCN2C(=O)c1ccc(C#N)cc1.O=C(O)C(F)(F)F  Percent Effect           2.551
18  O=C(Nc1ccccc1)C1CN(Cc2ccco2)CC12CCOCC2.O=C(O)C(F)(F)F (stereo not given)  Percent Effect           14.17
19  CNC(=O)N1CC[C@@H]2CN(Cc3cccc(OC)c3)S(=O)(=O)[C@@H]2CC1  Percent Effect           61.69
